EXPERIMENTAL SYSTEM: T1, coreTAPL (core complex of the transporter associated with antigen processing-like, ABCB9) fused C-terminally … (human, UniProt Q9NP78 143-766)
T1 construct: TAPL (ABCB9), human, core complex without TMD0, amino acids 143-766 of UniProt Q9NP78; source: reconstituted into proteoliposomes for transport and ATPase assays; not shown: mVenus, C-terminal, kept
T1 sequence (looked up): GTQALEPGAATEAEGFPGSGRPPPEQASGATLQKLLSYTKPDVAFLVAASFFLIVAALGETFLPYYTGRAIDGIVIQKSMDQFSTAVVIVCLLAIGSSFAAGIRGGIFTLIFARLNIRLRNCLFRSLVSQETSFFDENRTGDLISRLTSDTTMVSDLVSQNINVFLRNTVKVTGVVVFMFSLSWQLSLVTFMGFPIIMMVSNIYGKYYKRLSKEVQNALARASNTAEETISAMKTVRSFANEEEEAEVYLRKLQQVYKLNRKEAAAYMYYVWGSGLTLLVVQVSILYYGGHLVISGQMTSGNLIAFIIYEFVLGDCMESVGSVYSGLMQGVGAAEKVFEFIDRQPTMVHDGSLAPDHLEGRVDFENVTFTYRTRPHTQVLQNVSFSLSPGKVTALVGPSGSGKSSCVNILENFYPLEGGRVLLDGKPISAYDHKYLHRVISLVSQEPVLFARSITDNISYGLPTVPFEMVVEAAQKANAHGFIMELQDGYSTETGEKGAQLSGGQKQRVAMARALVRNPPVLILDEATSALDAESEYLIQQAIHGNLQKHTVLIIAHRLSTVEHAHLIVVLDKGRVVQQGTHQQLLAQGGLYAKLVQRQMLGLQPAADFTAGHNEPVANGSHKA
ASSAY DETAILS: MST; 100 nM 9-mer^Atto-655 peptide with increasing TAPL concentrations; 20 mM HEPES, 140 mM NaCl, 0.05% DDM, 15% glycerol, pH 7.5; 22 °C; one-site binding model
EXPERIMENTAL CONTEXT: both partners purified
Ends that are not written are not given here.
QUANTITY MEASURED: Kd (µM)
API: value field is a number in µM; no unit string.

Q) Can you look up the measured Kd of RRYC(Atto‑655 maleimide)KSTEL (source: synthetic peptide (solid phase synthesis)) [Atto-655 labeled 9-mer peptide RRYC^Atto-655KSTEL] for me?
A) 5.4
